molecular target: T1, human MSLN-R2-his protein (human, UniProt Q13421 391-486); experiment: ELISA on coated antigen, antibody 10 nM
T1 construct: Self-made in HEK293E cells; also called human MSLN-R2 protein; hMSLN-R2-his; not shown: His tag
T1 sequence (Q13421 other isoform, or with tags, fused parts or gaps): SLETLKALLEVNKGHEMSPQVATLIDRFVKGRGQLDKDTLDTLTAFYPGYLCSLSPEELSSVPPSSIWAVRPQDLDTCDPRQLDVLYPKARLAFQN

| Binder | OD450 (OD450) |
| --- | --- |
| S009-F2.39.3 (antibody, human IgG1, kappa, V domains shown, Human-murine chimeric antibody: murine VH/VL on human IgG1 heavy and kappa light constant regions) VH: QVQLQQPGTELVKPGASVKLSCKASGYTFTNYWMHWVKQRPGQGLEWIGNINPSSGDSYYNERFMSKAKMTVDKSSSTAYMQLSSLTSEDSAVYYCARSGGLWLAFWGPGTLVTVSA VL: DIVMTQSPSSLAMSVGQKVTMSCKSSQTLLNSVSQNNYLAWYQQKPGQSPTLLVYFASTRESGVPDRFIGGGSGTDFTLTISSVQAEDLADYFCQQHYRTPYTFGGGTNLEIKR | 0.05 |
| S009-F2.38.12 (antibody, human IgG1, kappa, V domains shown, Human-murine chimeric antibody: murine VH/VL on human IgG1 heavy and kappa light constant regions) VH: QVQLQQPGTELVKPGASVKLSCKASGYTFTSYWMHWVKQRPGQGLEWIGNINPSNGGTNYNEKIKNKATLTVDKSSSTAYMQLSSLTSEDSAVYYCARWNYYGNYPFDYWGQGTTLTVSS VL: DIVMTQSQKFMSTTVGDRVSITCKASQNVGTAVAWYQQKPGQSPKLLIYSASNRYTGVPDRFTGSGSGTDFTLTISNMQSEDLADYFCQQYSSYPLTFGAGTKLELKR | 0.05 |
